Quick list: ED50 per entry.
tested on: Mus musculus; assay: Hypnotic activity in ip dosed CFLP mouse after 30 mins by rotary drum test; format: functional; conditions: 0.5 h
Please reply with the bare figure in mg/kg and do not write the unit itself.

Known ED50 results, listed for orientation:
In [3]: df
Out[3]:
                                   compound  result_value
0  Br.C/N=C(\NC)SCc1nc2ccccc2c(=O)n1-c1ccccc1F            54
1   Br.Cc1ccccc1-n1c(CSC(=N)N)nc2ccccc2c1=O            35
2    Br.N=C(N)SCc1nc2ccccc2c(=O)n1-c1ccccc1            42
3        CCCCOCc1nc2ccccc2c(=O)n1-c1ccccc1C            88
4  Br.Cc1c(Cl)cccc1-n1c(CSC(=N)N)nc2ccccc2c1=O            57
5         Cc1ccccc1-n1c(C(F)F)nc2ccccc2c1=O           100

# query: ED50 of entry Cc1ccccc1-n1c(C)nc2ccccc2c1=O [METHAQUALONE]
30

# query: ED50 of entry COCc1nc2ccccc2c(=O)n1-c1ccccc1C
22

# query: ED50 of entry Br.CCCC/N=C(\NCCCC)SCc1nc2ccccc2c(=O)n1-c1ccccc1C
40

# query: ED50 of entry Br.Cc1ccccc1-n1c(CS/C(N)=N/N)nc2ccccc2c1=O
15.5

====

tested on: Mus musculus; assay: Hypnotic activity in ip dosed CFLP mouse after 30 mins by rotary drum test; type: functional; conditions: 0.5 h
Quick list: ED50 per entry.

Known ED50 results, listed for orientation:
In [3]: df
Out[3]:
                              record_smiles  tested_system  result_value
0  Br.Cc1ccc([N+](=O)[O-])cc1-n1c(CSC2=NCCN2)nc2ccccc2c1=O   Mus musculus      86 mg/kg
1  Br.C/N=C(\NC)SCc1nc2ccccc2c(=O)n1-c1ccccc1C   Mus musculus      32 mg/kg
2  Br.C/N=C(\NC)SCc1nc2ccccc2c(=O)n1-c1ccccc1   Mus musculus    > 50 mg/kg
3      Cc1ccccc1-n1c(C(F)(F)F)nc2ccccc2c1=O   Mus musculus   > 200 mg/kg

# query: ED50 of entry Br.O=c1c2ccccc2nc(CSC2=NCCN2)n1-c1ccccc1Cl
12 mg/kg

# query: ED50 of entry Cc1ccccc1-n1c(C(Br)Br)nc2ccccc2c1=O
> 200 mg/kg

# query: ED50 of entry Br.Cc1ccccc1-n1c(CSC2=NCCN2)nc2ccccc2c1=O
42 mg/kg

# query: ED50 of entry Cc1ccccc1-n1c(CSC(N)=O)nc2ccccc2c1=O.Cl
19 mg/kg

# query: ED50 of entry CCOCc1nc2ccccc2c(=O)n1-c1ccccc1C
27 mg/kg

# query: ED50 of entry CC(=O)OCc1nc2ccccc2c(=O)n1-c1ccccc1C
155 mg/kg

# query: ED50 of entry Br.O=c1c2ccccc2nc(CSC2=NCCN2)n1-c1ccc(Cl)cc1
47 mg/kg

# query: ED50 of entry CCCSCc1nc2ccccc2c(=O)n1-c1ccccc1C
100 mg/kg

# query: ED50 of entry Br.Cc1ccccc1-n1c(CSC2=NCCCN2)nc2ccccc2c1=O
39 mg/kg

# query: ED50 of entry Cc1ccccc1-n1c(CO)nc2ccccc2c1=O
56 mg/kg

====

tested on: Mus musculus; assay: Anticonvulsant activity in ip dosed CFLP mouse assessed as inhibition of pentylenetetrazole-induced seizure; type: functional
Quick list: ED50 per entry.

Known ED50 results, listed for orientation:
In [3]: df
Out[3]:
                              record_smiles  result_value
0  Br.C/N=C(\NC)SCc1nc2ccccc2c(=O)n1-c1cc([N+](=O)[O-])ccc1C    > 10 mg/kg
1  Br.O=c1c2ccccc2nc(CSC2=NCCN2)n1-c1ccccc1    > 50 mg/kg

Requested read-out ED50, target or system Mus musculus, entry Br.C/N=C(\NC)SCc1nc2ccccc2c(=O)n1-c1ccccc1F
> 50 mg/kg

====

Quick list: ED50 per entry.
tested on: Mus musculus; assay: Hypnotic activity in ip dosed CFLP mouse after 30 mins by rotary drum test; assay type: functional; details: 0.5 h

>>> df
                              record_smiles  tested_system  result_value
0  Br.C/N=C(\NC)SCc1nc2ccccc2c(=O)n1-c1cc([N+](=O)[O-])ccc1C   Mus musculus    > 10 mg/kg

Requested read-out ED50, target or system Mus musculus, entry Br.O=c1c2ccccc2nc(CSC2=NCCN2)n1-c1ccccc1
> 50 mg/kg

Requested read-out ED50, target or system Mus musculus, entry Cc1ccccc1-n1c(CBr)nc2ccccc2c1=O
> 200 mg/kg

Requested read-out ED50, target or system Mus musculus, entry Br.Cc1c(Cl)cccc1-n1c(CSC2=NCCN2)nc2ccccc2c1=O
> 25 mg/kg

Requested read-out ED50, target or system Mus musculus, entry Cc1ccccc1-n1c(COC(=O)CCC(=O)O)nc2ccccc2c1=O
> 200 mg/kg
